Target: 17β-hydroxysteroid dehydrogenase type 1 (17β-HSD type 1) (Homo sapiens, UniProt P14061)
Construct: expressed in transfected cells; host or cells: MCF-7
Sequence (P14061 1-328): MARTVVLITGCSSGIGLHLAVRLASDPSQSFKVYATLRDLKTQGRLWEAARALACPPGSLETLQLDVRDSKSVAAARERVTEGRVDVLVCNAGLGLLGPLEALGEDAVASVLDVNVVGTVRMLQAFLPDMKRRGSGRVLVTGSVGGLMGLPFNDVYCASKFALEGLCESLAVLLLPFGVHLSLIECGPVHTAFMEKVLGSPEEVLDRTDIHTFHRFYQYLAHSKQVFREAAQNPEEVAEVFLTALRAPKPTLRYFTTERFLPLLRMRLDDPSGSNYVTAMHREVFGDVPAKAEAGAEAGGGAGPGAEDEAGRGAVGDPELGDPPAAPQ
Test: Inhibition of 17β-HSD type 1 in MCF-7 cells stably expressing the isoenzyme (tritium labeled estrone conversion, HPLC)
Format: cell-based
Settings: MCF7; 1 μM test compound; MCF-7 cells expressing 17β-HSD type 1; 2 nM tritium labeled estrone; read-out: % Inhibition HSD1 1 μM
EXPERIMENTAL ENDPOINT: inhibition at 1 µM (%)

a = O=c1c2c(nc(-c3cccs3)n1Cc1ccccc1)sc1c(O)cccc12
b = COc1cc(-c2nc3sc4c(c3c(=O)n2Cc2ccccc2)CCC(Br)C4=O)cc(OC)c1OC (stereo not shown)
**Q:** Recorded inhibition at 1 µM values differ for a and b ; which one is higher? // respond with label for picked entry
**A:** b

P = O=c1c2c3c(sc2nc(-c2cccs2)n1Cc1ccccc1)CCCC3
Q = COc1cc(-c2nc3sc4c(c3c(=O)n2CC2CCCO2)CCCC4=O)cc(OC)c1OC (stereo not shown)
**Q:** Please let me know which one, P or Q , has a lower measured inhibition at 1 µM value. // respond with label for picked entry
**A:** P
(P: 17.7%, Q: 37.7%)

###

Molecular target: 17β-hydroxysteroid dehydrogenase type 1 (17β-HSD type 1) (Homo sapiens)
Construct: expressed in transfected cells; host or cells: MCF-7
Sequence (P14061 1-328): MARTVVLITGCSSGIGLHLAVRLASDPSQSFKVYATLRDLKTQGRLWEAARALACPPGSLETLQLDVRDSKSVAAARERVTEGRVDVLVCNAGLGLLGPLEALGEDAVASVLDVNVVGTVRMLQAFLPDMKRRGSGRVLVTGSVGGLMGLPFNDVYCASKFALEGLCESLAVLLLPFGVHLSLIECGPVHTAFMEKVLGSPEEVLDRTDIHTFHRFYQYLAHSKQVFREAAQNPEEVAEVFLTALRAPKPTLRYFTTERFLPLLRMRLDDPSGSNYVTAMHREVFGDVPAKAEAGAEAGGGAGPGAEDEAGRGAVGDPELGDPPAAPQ
Test: Inhibition of 17β-HSD type 1 in MCF-7 cells stably expressing the isoenzyme (tritium labeled estrone conversion, HPLC)
Format: cell-based
Details: MCF7; 10 μM test compound; MCF-7 cells expressing 17β-HSD type 1; 2 nM tritium labeled estrone; read-out: % Inhibition HSD1 10 μM
EXPERIMENTAL ENDPOINT: inhibition at 10 µM (%)

I = CCCc1nc2sc3c(c2c(=O)n1Cc1ccco1)CCCC3 [No. 101]
II = COc1cc(-c2nc3sc4c(Cl)c(C=O)ccc4c3c(=O)n2Cc2ccccc2)c(Cl)c(OC)c1OC [No. 150]
III = COc1cc(-c2nc3sc4c(OC(C)=O)cccc4c3c(=O)n2CC(C)C)c(Br)c(OC)c1OC [No. 118]
IV = COc1cc(-c2nc3sc4c(O)ccc(C)c4c3c(=O)n2Cc2ccccc2)c(Br)c(OC)c1OC [No. 686]
**Q:** Order the entries by their reported inhibition at 10 µM, beginning at the minimum. Provide the labels, sequenced as the question asks.
**A:** II, IV, I, III

I = COc1cc(-c2nc3sc4c(c3c(=O)n2Cc2ccccc2)CCCC4O)cc(OC)c1OC (stereo not shown) [No. 145]
II = COc1cc(-c2nc3sc4c(c3c(=O)n2Cc2ccccc2)CCC(Br)C4=O)cc(OC)c1OC (stereo not shown) [No. 46]
**Q:** Please let me know which one, I or II , has a lower measured inhibition at 10 µM value. // respond with label for picked entry
**A:** I

I = CCSc1c(C=O)ccc2c1sc1nc(-c3ccc(OC)cc3)n(Cc3ccccc3)c(=O)c12 [No. 18]
II = COc1cc(-c2nc3sc4c(c3c(=O)n2Cc2ccco2)CCCC4=O)cc(OC)c1OC [No. 120]
**Q:** Please let me know which one, I or II , has a lower measured inhibition at 10 µM value. // respond with label for picked entry
**A:** I

I = CCC(C)Cn1c(-c2cc(OC)c(OC)c(OC)c2Br)nc2sc3c(c2c1=O)CCC(Br)(Br)C3=O (stereo not shown) [No. 128]
II = CCCc1nc2sc3c(O)cccc3c2c(=O)n1Cc1cc(Br)ccc1OC [No. 98]
**Q:** Please let me know which one, I or II , has a lower measured inhibition at 10 µM value. // respond with label for picked entry
**A:** I
(I: 25.9%, II: 69.1%)

I = COCc1nc2sc3c(c2c(=O)n1-c1ccccc1)CCCC3 [No. 36]
II = O=c1c2c(nc(-c3ccccc3)n1Cc1ccccc1)sc1c(O)cccc12 [No. 60]
III = COc1cc(-c2nc3sc4c(c3c(=O)n2CC(C)C)CCCC4=O)cc(OC)c1OC [No. 114]
IV = O=C1c2sc3nc(-c4ccc(Br)s4)n(Cc4ccccc4)c(=O)c3c2CCC1(Br)Br [No. 66]
**Q:** # sort list by recorded inhibition at 10 µM, greatest to least Provide the labels, sequenced as the question asks.
**A:** III, II, I, IV
(III: 55.9%, II: 36%, I: 22.4%, IV: 8.9%)

a = COc1cc(-c2nc3sc4c(c3c(=O)n2Cc2ccccc2)C(C)CCC4)cc(OC)c1OC (stereo not shown) [No. 683]
b = COc1c(O)cc(-c2nc3sc4c(c3c(=O)n2-c2ccccc2)CCCC4)cc1O [No. 42]
**Q:** Please let me know which one, a or b , has a lower measured inhibition at 10 µM value. // respond with label for picked entry
**A:** a

P = CCSC1=C(CO)CCc2c1sc1nc(-c3ccc(OC)cc3)n(Cc3ccccc3)c(=O)c21 [No. 19]
Q = CCC(C)Cn1c(-c2cc(OC)c(OC)c(OC)c2Cl)nc2sc3c(c2c1=O)CCC(Cl)(Cl)C3=O (stereo not shown) [No. 142]
**Q:** Recorded inhibition at 10 µM values differ for P and Q ; which one is higher? // respond with label for picked entry
**A:** Q

a = O=c1c2c(nc(-c3ccccc3)n1Cc1ccccc1)sc1c(O)c(Br)ccc12 [No. 92]
b = COCCn1c(-c2cccs2)nc2sc3c(O)c(Br)ccc3c2c1=O [No. 148]
**Q:** Please let me know which one, a or b , has a lower measured inhibition at 10 µM value. // respond with label for picked entry
**A:** a

###

molecular target: 17β-hydroxysteroid dehydrogenase type 1 (17β-HSD type 1) (Homo sapiens); construct: expressed in transfected cells; host or cells: MCF-7; experiment: Inhibition of 17β-HSD type 1 in MCF-7 cells stably expressing the isoenzyme (tritium labeled estrone conversion, HPLC); assay type: cell-based; conditions: MCF7; 1 μM test compound; MCF-7 cells expressing 17β-HSD type 1; 2 nM tritium labeled estrone; read-out: % Inhibition HSD1 1 μM
EXPERIMENTAL ENDPOINT: inhibition at 1 µM (%)

CCCCn1c(-c2cc(OC)c(OC)c(OC)c2)nc2sc3c(c2c1=O)CCC(Br)(Br)C3=O :: 25
COc1cc(-c2nc3sc4c(OC(C)=O)cccc4c3c(=O)n2Cc2ccccc2)c(Br)c(OC)c1OC :: 34.4
CCCc1nc2sc3c(O)cccc3c2c(=O)n1Cc1ccc(Br)o1 :: 29.8

###

target: 17β-hydroxysteroid dehydrogenase type 1 (17β-HSD type 1) (Homo sapiens); construct: expressed in transfected cells; host or cells: MCF-7; test: Inhibition of 17β-HSD type 1 in MCF-7 cells stably expressing the isoenzyme (tritium labeled estrone conversion, HPLC); type: cell-based; conditions: MCF7; 10 μM test compound; MCF-7 cells expressing 17β-HSD type 1; 2 nM tritium labeled estrone; read-out: % Inhibition HSD1 10 μM
EXPERIMENTAL ENDPOINT: inhibition at 10 µM (%)

CCC(C)Cn1c(-c2cc(OC)c(OC)c(OC)c2)nc2sc3c(c2c1=O)CCCC3 (stereo not shown) [No. 125] :: 49.9

P = COc1cc(-c2nc3sc4c(c3c(=O)n2CC2CCCO2)CCC(Br)C4=O)c(Br)c(OC)c1OC (stereo not shown) [No. 132]
Q = O=C1c2sc3nc(-c4cccs4)n(Cc4ccccc4)c(=O)c3c2CCC1Br (stereo not shown)
R = COc1ccc(-c2nc3sc4c(Oc5ccccc5)c(CO)ccc4c3c(=O)n2Cc2ccccc2)cc1 [No. 20]
**Q:** # sort list by recorded inhibition at 10 µM, greatest to least Provide the labels, sequenced as the question asks.
**A:** P, R, Q
(P: 53.9%, R: 37.5%, Q: 23.2%)
